The reported measurements were obtained from patent US4863935A.

For each entry below, report its LD50 at 336 h value.
# experiment.notes: LD50 acute toxicity, ddy mice, single abdominal injection
# setup.conditions: mouse, in vivo, ip, 5 ddy mice, 14 days observation, Behrens-Koerber's method
Please reply with the bare figure in mg/kg and do not write the unit itself.

Enquiry: Return the recorded LD50 at 336 h value; entry: "CNC(=S)SCCNC1=C(C)C(=O)C2=C(C1=O)[C@@H](COC(N)=O)[C@@]1(OC)[C@H]3N[C@H]3CN21"
Return: 52.5

Enquiry: Using the record for CO[C@@]12[C@H](COC(N)=O)C3=C(C(=O)C(C)=C(NCCSC(=O)NC(CO)C(C)C)C3=O)N1C[C@@H]1N[C@@H]12 (stereo partly drawn) , state its measured LD50 at 336 h.
Return: 45

Enquiry: Please give the documented LD50 at 336 h of "CO[C@@]12[C@H](COC(N)=O)C3=C(C(=O)C(C)=C(NCCSC(=O)N4CCCC4)C3=O)N1C[C@@H]1N[C@@H]12"
Return: 37.5

Enquiry: Quote LD50 at 336 h reported for "CCC(CC)NC(=O)SCCNC1=C(C)C(=O)C2=C(C1=O)[C@@H](COC(N)=O)[C@@]1(OC)[C@H]3N[C@H]3CN21" please.
Return: 45

###

# experiment.notes: LD50 acute toxicity, ddy mice, single abdominal injection
# setup.conditions: mouse, in vivo, ip, 5 ddy mice, 14 days observation, Behrens-Koerber's method
Field: LD50 at 336 h. Provide a value for each of the compounds that follow.
Answer with a number only, understood to be in mg/kg.

Enquiry: Give LD50 at 336 h for the following compound: CCNC(=S)SCCNC1=C(C)C(=O)C2=C(C1=O)[C@@H](COC(N)=O)[C@@]1(OC)[C@H]3N[C@H]3CN21 [Compound 39]
Return: 45

Enquiry: Provide one value: measured LD50 at 336 h of CCCNC(=O)SCCNC1=C(C)C(=O)C2=C(C1=O)[C@@H](COC(N)=O)[C@@]1(OC)[C@H]3N[C@H]3CN21 [Compound 27]
Return: 37.5

Enquiry: Read the entry CO[C@@]12[C@H](COC(N)=O)C3=C(C(=O)C(C)=C(NCCSC(=S)NC4CCCCC4)C3=O)N1C[C@@H]1N[C@@H]12 [Compound 37] and write its reported LD50 at 336 h.
Return: 41.3

###

# experiment.notes: LD50 acute toxicity, ddy mice, single abdominal injection
# setup.conditions: mouse, in vivo, ip, 5 ddy mice, 14 days observation, Behrens-Koerber's method
observable: LD50 at 336 h (mg/kg)
Write down the numeric answer in mg/kg and omit the unit.

Enquiry: Give recorded LD50 at 336 h. "CO[C@@]12[C@H](COC(N)=O)C3=C(C(=O)C(C)=C(NCCSC(=O)NCC(C)C)C3=O)N1C[C@@H]1N[C@@H]12"
Return: 22.5

Enquiry: Provide only the value of recorded LD50 at 336 h for "CO[C@@]12[C@H](COC(N)=O)C3=C(C(=O)C(C)=C(NCCSC(=O)NC(C(C)C)C(C)C)C3=O)N1C[C@@H]1N[C@@H]12"
Return: 37.5

Enquiry: Look up and report measured LD50 at 336 h for this entry: CCC(C)NC(=O)SCCNC1=C(C)C(=O)C2=C(C1=O)[C@@H](COC(N)=O)[C@@]1(OC)[C@H]3N[C@H]3CN21 (stereo partly drawn)
Return: 37.5

Enquiry: Quickly give me recorded LD50 at 336 h for "CO[C@@]12[C@H](COC(N)=O)C3=C(C(=O)C(C)=C(NCCSC(=O)N4CCOCC4)C3=O)N1C[C@@H]1N[C@@H]12"
Return: 52.5

Enquiry: Could you please provide reported LD50 at 336 h for "CO[C@@]12[C@H](COC(N)=O)C3=C(C(=O)C(C)=C(NCCSCOC(=O)NCCC(=O)OC(C)(C)C)C3=O)N1C[C@@H]1N[C@@H]12" ? Thanks!
Return: 45
